- Subject of test: Betaine--homocysteine S-methyltransferase 1 (Homo sapiens, UniProt Q93088)
- Sequence (Q93088 whole entry): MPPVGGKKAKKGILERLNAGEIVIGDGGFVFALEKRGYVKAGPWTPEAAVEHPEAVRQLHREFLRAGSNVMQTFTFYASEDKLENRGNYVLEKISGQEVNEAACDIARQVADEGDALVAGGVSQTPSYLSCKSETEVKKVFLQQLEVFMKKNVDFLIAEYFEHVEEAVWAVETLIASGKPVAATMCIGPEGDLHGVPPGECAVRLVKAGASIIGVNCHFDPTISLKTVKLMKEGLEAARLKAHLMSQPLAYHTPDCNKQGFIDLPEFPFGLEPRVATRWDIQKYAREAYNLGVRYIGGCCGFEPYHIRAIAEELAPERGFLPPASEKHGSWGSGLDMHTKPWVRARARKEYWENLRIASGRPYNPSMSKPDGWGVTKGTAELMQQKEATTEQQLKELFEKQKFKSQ
- Test: Inhibition of human recombinant BHMT using N-methyl-[14C]-betaine/D,L-homocysteine as substrate after 30 mins by scintiillation counting analysis
Quantity kind: pIC50
Answers are plain numbers, as −log10 of the molar value.

Sample answers from the record:
>>> df
                                   compound                           subject_of_test  numeric_readout
0      NC(CCSCCCCC(=O)O)P(=O)(O)O (racemic)  Betaine--homocysteine S-methyltransferase 1 (Homo sapiens, UniProt Q93088)             3.66
1  CC(C)(CCSCCC(N)[PH](=O)O)CC(=O)O (racemic)  Betaine--homocysteine S-methyltransferase 1 (Homo sapiens, UniProt Q93088)             5.96

GET /values?readout=pIC50&item= NC(CCSCCCCC(=O)O)[PH](=O)O (racemic)
5.30
